Values compiled from the supplement of paper PMC12636033.

tested on: muMax20 (Max(13-93) K31hArg/K57hArg, M65Nle); experiment: PBM 8-mer E-score (E-score (rank enrichment, -0.5 to 0.5)); higher = stronger preferential binding
The full ranking holds about 33,000 sequences; the median of “E-score (rank enrichment, -0.5 to 0.5)” is about -0.0068, and the highest 2% start at about 0.24. The full list was thinned out, with the highest values kept by preference.
Range-based classes on measured PBM 8-mer E-score: one = under -0.02, two = from -0.02 up to 0.1, three = 0.1 and over

// known answers, use as guide
- TGTGCACA: three
- ATCCTGTC: one
- GATGCACA: two

Problem: Each sequence maps to one class by PBM 8-mer E-score. Which class for TATTTCAA ?
Result: three

Problem: Each sequence maps to one class by PBM 8-mer E-score. Which class for AATAGGTA ?
Result: three
